Measured half-life values are reported for all entries that follow.
Assay: Liver microsome metabolic stability test, human
Type: in vitro ADME
Conditions: liver microsomes, 0.5 mg/mL protein, read-out: T½
Method: 1: To the sample wells of T0, T5, T10, T20, T30, T60 and NCF60, 10 µL of the test or reference working solution and 80 µL of microsome working solution (hepatic microsome with a protein concentration of 0.5 mg/mL) were added, and to Blank60 well, only the microsome working solution was added. […] 6: Data analysis: T½ and CLint(mic) (µL/min/mg) values were calculated according to the first-order elimination kinetics. […]
measured.quantity: half-life (min)

INSERT INTO results (compound, bound_type, recorded_measurement) VALUES
  ('COc1cccc(Oc2ccc(-c3nc(C4CCC(CO)OC4)n4c(Cl)cnc(N)c34)cc2)c1F (stereo not shown) [Compound 12]', '=', 11.1),
  ('COc1ccccc1C(=O)NCc1ccc(-c2nn(C3CCC(CO)OC3)c3ncnc(N)c23)cc1 (single isomer, unassigned) [Compound 60-A]', '>', 145),
  ('Nc1nccn2c(C3CCC(CO)OC3)nc(-c3ccc(Oc4cccc(Cl)c4F)cc3)c12 (stereo not shown) [Compound 9]', '=', 28.6),
  ('Nc1nccn2c(C3CCC(CO)OC3)nc(-c3ccc(Oc4cccc(C(F)(F)F)c4F)cc3)c12 (stereo not shown) [Compound 19]', '=', 29.4);
